Test Method Notes: Pharmacokinetics and brain distribution study after a single oral administration
Condition Description: male, Sprague Dawley, rat, plasma, po, 10 mg/kg
Property: AUC(0-inf); scope: individual molecules
Express the result in ng·h/mL but write the number alone.

| Molecule | AUC(0-inf) [ng·h/mL] |
| --- | --- |
| C=CC(=O)N1CCC[C@@H](n2nc(-c3ccc(Oc4ccccc4)cc3)c3c(N)ncnc32)C1 [Ibrutinib, reference compound] | 666 |

Ask | For the molecule shown here, C=CC(=O)N1CCC[C@@H](c2nc(-c3ccc(Oc4ccccc4)cc3)c3c(N)nccn23)C1 , give the reported AUC(0-inf).
Reply | 285

* * *

Assayed Target: BTK (Homo sapiens, UniProt Q06187)
Sequence (Q06187 whole entry): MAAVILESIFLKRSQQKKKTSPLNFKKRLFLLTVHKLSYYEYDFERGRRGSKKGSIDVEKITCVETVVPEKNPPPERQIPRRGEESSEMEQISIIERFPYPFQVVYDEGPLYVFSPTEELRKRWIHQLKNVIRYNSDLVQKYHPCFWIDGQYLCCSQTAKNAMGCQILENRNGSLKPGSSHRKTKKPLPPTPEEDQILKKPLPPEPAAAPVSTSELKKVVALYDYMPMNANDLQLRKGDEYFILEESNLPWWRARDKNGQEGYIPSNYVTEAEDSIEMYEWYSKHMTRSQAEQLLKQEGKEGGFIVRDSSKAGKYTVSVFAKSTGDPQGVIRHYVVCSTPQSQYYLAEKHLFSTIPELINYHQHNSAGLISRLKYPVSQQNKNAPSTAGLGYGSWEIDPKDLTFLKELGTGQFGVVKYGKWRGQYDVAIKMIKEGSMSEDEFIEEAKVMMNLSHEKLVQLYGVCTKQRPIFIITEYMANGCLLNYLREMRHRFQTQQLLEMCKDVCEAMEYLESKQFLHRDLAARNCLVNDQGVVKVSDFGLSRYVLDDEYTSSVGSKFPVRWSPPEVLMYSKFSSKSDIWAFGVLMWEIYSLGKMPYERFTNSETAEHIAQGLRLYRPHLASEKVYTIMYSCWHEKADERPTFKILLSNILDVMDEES
pIC50: −log10 of the molar value.
Property Name: pIC50

Ask | Given the entry C=CC(=O)N1CCC[C@@H](c2nc(-c3ccc(Oc4ccccc4)cc3)c3c(N)ncnn23)C1 [Example 8] , what pIC50 was observed with BTK (Homo sapiens, UniProt Q06187)?
Reply | > 9.00

* * *

Test Method Notes: Pharmacokinetics and brain distribution study after a single oral administration
Condition Description: male, Sprague Dawley, rat, plasma, po, 10 mg/kg
Property Name: half-life (h)
Express the result in h but write the number alone.

Ask | For the compound shown here, C=CC(=O)N1CCC[C@@H](c2nc(-c3ccc(Oc4ccccc4)cc3)c3c(N)nccn23)C1 [Example 7] , give the reported half-life.
Reply | 1.69

* * *

Test Method Notes: Pharmacokinetics and brain distribution study after a single oral administration
Condition Description: male, Sprague Dawley, rat, plasma, po, 10 mg/kg
Property Name: Cmax

Ask | For the compound shown here, C=CC(=O)N1CCC[C@@H](c2nc(-c3ccc(Oc4ccccc4)cc3)c3c(N)nccn23)C1 , give the reported Cmax.
Reply | 117 ng/mL

* * *

Test Method Notes: in vivo
Condition Description: male, Sprague-Dawley, rat, iv, 0.5 mg/kg
Property Name: Cmax

Ask | For the compound shown here, C=CC(=O)N1CCC[C@@H](c2nc(-c3ccc(Oc4ccccc4)cc3)c3c(N)ncnn23)C1 , give the reported Cmax.
Reply | 1120 ng/mL

* * *

Test Method Notes: Pharmacokinetics and brain distribution study after a single oral administration
Condition Description: male, Sprague Dawley, rat, plasma, po, 10 mg/kg
Property Name: Tmax
Answer with the figure and its unit, nothing else.

Ask | For the compound shown here, C=CC(=O)N1CCC[C@@H](c2nc(-c3ccc(Oc4ccccc4)cc3)c3c(N)nccn23)C1 , give the reported Tmax.
Reply | 30 min
